# assayedTarget: human Dopamine D2L receptor (Homo sapiens, UniProt P14416)
# Construct: expressed in transfected cells; host or cells: CHO cells
# Sequence (P14416 whole entry): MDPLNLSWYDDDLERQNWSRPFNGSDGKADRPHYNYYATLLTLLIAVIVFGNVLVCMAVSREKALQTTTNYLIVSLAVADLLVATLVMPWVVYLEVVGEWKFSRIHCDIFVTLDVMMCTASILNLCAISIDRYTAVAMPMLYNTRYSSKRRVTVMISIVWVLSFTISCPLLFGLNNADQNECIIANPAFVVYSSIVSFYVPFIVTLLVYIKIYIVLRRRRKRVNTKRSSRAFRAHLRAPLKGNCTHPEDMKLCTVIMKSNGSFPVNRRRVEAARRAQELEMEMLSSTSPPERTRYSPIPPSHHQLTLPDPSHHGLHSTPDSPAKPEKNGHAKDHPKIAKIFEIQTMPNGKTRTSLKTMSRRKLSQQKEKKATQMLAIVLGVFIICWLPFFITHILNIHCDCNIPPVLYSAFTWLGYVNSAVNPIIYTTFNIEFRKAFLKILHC
# assayRemarks: In vitro binding affinity for human D2L receptor ([3H]Spiperone)
# appliedConditions: h-D2L
experimentalReadout: pIC50
Remember, pIC50 is on a log scale: it is -log10 of the molar concentration.

Which pIC50 is listed for CN(C/C=C/c1ccccc1)C[C@H]1CC2=C(O1)c1cc(F)ccc1Cc1ccccc12 [Compound 110] ?
6.80

---

# assayedTarget: human Dopamine D2L receptor (Homo sapiens)
# Construct: expressed in transfected cells; host or cells: CHO cells
# assayRemarks: In vitro binding affinity for human D2L receptor ([3H]Spiperone)
# appliedConditions: human D2L receptor-transfected CHO cell membranes, [3H]Spiperone; read-out: h-D2L (converted)
IC50 for assorted compounds
Report the value in nM with no unit label.

Please review the entries below; each comes with its answer.
COc1ccc(NC(=O)N2CCN(CC3CC4=C(O3)c3cc(F)ccc3Cc3ccccc34)CC2)cc1 (centres unmarked)	39.8
CN(C)CC1CC2=C(O1)c1cc(F)ccc1Sc1ccccc12 (centres unmarked)	12.6
CCCn1c2c(c3ccccc31)C1=C(CC(CN(C)C)O1)c1ccccc1S2 (centres unmarked)	1000
O=C(C1CC1)N1CCN(CC2CC3=C(O2)c2cc(F)ccc2Oc2ccccc23)CC1 (centres unmarked)	1580

Now take the following compound into account.
Form field: IC50 recorded for CNCC1CC2=C(O1)c1cc(F)ccc1Oc1ccccc12 (centres unmarked) with human Dopamine D2L receptor (Homo sapiens) (enter value)
200

---

# assayedTarget: human cloned 5-HT2C receptor (Homo sapiens)
# Construct: expressed in transfected cells; host or cells: CHO cells
# Sequence (P28335 33-458): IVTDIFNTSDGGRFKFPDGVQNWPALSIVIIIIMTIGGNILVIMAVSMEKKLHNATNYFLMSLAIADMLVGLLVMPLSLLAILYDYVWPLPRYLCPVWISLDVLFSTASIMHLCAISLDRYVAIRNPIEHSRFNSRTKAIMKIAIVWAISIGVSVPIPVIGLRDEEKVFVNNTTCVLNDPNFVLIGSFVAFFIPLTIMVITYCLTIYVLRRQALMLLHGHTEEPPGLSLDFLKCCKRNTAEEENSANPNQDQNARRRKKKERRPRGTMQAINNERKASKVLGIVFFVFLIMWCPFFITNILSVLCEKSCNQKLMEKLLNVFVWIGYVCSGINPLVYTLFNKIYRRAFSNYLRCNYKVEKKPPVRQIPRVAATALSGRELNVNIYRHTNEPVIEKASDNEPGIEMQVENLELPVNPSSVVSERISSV
# assayRemarks: In vitro binding affinity for 5-HT2C receptor (radioligand binding)
# appliedConditions: human cloned 5-HT2C receptor, radioligand binding; read-out: h-5HT2C (converted)
Binary label based on IC50 with cut-off 10 nM: below gives true, not below gives false.

Take a look at these entries with their results.
CCNCC1CC2=C(O1)c1cc(F)ccc1Cc1ccccc12 (single isomer, unassigned) [Compound 16]	false
CN(CCC(=O)O)C[C@H]1CC2=C(O1)c1cc(F)ccc1Cc1ccccc12	false
CN(C)C(=O)N1CCN(CC2CC3=C(O2)c2cc(F)ccc2Oc2ccccc23)CC1 (centres unmarked)	false
O=C(c1ccccc1)N1CCN(CC2CC3=C(O2)c2cc(F)ccc2Cc2ccccc23)CC1 (centres unmarked)	false
COc1cc2c(cc1OC)CN(CC1CC3=C(O1)c1cc(F)ccc1Cc1ccccc13)CC2 (centres unmarked)	true
CN(C)CC1CC2=C(O1)c1cc(Br)ccc1Oc1ccccc12 (centres unmarked)	true

Lab note: IC50 threshold 10 nM. Does this molecule come in strictly under it? CNCC1CC2=C(O1)c1cc(F)ccc1Cc1ccccc12 (centres unmarked)
true

Entry CCS(=O)(=O)N1CCN(CC2CC3=C(O2)c2cc(F)ccc2Oc2ccccc23)CC1 (centres unmarked) please
false

---

# assayedTarget: human cloned 5-HT2A receptor (Homo sapiens, UniProt P28223)
# Construct: expressed in transfected cells; host or cells: L929 cells
# Sequence (P28223 whole entry): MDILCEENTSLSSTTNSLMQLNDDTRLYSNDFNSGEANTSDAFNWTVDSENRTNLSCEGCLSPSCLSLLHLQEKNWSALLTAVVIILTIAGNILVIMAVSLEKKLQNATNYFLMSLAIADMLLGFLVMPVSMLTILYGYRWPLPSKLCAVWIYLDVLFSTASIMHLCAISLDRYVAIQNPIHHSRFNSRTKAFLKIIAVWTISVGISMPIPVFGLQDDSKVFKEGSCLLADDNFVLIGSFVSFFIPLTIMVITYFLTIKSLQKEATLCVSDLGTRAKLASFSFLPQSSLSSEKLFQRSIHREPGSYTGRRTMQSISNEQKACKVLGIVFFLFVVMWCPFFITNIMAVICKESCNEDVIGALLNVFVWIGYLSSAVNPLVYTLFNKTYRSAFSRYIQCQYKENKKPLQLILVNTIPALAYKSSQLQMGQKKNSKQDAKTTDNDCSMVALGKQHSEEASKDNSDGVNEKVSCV
# assayRemarks: In vitro binding affinity for 5-HT2A receptor (radioligand binding)
# appliedConditions: human cloned 5-HT2A receptor, radioligand binding; read-out: h-5HT2A (converted)
Binary label based on IC50 with cut-off 10 nM: below gives label 1, not below gives label 0.

Take a look at these entries with their results.
CN(C)CC1CC2=C(O1)c1ccccc1Oc1ccccc12 (stereo not drawn)	label 0
CN(C)C(=O)N1CCN(CC2CC3=C(O2)c2cc(F)ccc2Oc2ccccc23)CC1 (stereo not drawn)	label 0

Lab note: IC50 threshold 10 nM. Does this molecule come in strictly under it? COc1ccc(NC(=O)N2CCN(CC3CC4=C(O3)c3cc(F)ccc3Cc3ccccc34)CC2)cc1 (stereo not drawn)
label 1

Entry COc1ccc(NC(=O)N2CCN(CC3CC4=C(O3)c3cc(F)ccc3Oc3ccccc34)CC2)cc1 (stereo not drawn) please
label 1

Entry CN(CCO)CC1CC2=C(O1)c1cc(F)ccc1Cc1ccccc12 (stereo not drawn) please
label 1

Entry OCCC1CCN(CC2CC3=C(O2)c2cc(F)ccc2Cc2ccccc23)CC1 (stereo not drawn) please
label 1

Entry CN(Cc1nnn[nH]1)C[C@H]1CC2=C(O1)c1cc(F)ccc1Cc1ccccc12 please
label 1

Data credit: patent US8022102B2
